Cited source: ChEMBL document CHEMBL4814007

# Test system: SR
# experiment notes: Antiproliferative activity against ALK positive human SR cells
# Format: functional, cell-based
readout type: IC50 (nM)
Give bare numbers, in nM.

CCc1cc2c(cc1N1CCC(NC(=O)CCOCCOCCOCCOCCNc3cccc4c3C(=O)N(C3CCC(=O)NC3=O)C4=O)CC1)C(C)(C)c1[nH]c3cc(C#N)ccc3c1C2=O (stereo not drawn) ... 5.9
CCc1cc2c(cc1N1CCN(C(=O)CNc3cccc4c3C(=O)N(C3CCC(=O)NC3=O)C4=O)CC1)C(C)(C)c1[nH]c3cc(C#N)ccc3c1C2=O (stereo not drawn) ... 3.2
CCc1cc2c(cc1N1CCC(N3CCOCC3)CC1)C(C)(C)c1[nH]c3cc(C#N)ccc3c1C2=O ... 3.4
CCc1cc2c(cc1N1CCC(N3CCN(C(=O)CCCNc4cccc5c4C(=O)N(C4CCC(=O)NC4=O)C5=O)CC3)CC1)C(C)(C)c1[nH]c3cc(C#N)ccc3c1C2=O (stereo not drawn) ... 12.9
CCc1cc2c(cc1N1CCC(NC(=O)CCCNc3cccc4c3C(=O)N(C3CCC(=O)NC3=O)C4=O)CC1)C(C)(C)c1[nH]c3cc(C#N)ccc3c1C2=O (stereo not drawn) ... 8.2

Each compound below has a recorded value; state its IC50.
1. COc1cc(N2CCC(N3CCN(C)CC3)CC2)ccc1Nc1ncc(Cl)c(Nc2ccccc2P(C)(C)=O)n1
2. CCc1cc2c(cc1N1CCC(N3CCN(C(=O)CCOCCOCCNc4cccc5c4C(=O)N(C4CCC(=O)NC4=O)C5=O)CC3)CC1)C(C)(C)c1[nH]c3cc(C#N)ccc3c1C2=O (stereo not drawn)
3. CCc1cc2c(cc1N1CCN(C(=O)CCCNc3cccc4c3C(=O)N(C3CCC(=O)NC3=O)C4=O)CC1)C(C)(C)c1[nH]c3cc(C#N)ccc3c1C2=O (stereo not drawn)
4. CCc1cc2c(cc1N1CCC(N3CCN(C(=O)CCCCNc4cccc5c4CN(C4CCC(=O)NC4=O)C5=O)CC3)CC1)C(C)(C)c1[nH]c3cc(C#N)ccc3c1C2=O (stereo not drawn)

Data returned:
1. 1.9
2. 2.5
3. 9.2
4. 4.7

Each compound below has a recorded value; state its IC50.
1. CCc1cc2c(cc1N1CCC(N3CCN(C(=O)CCCCC(=O)NC(C(=O)N4C[C@H](O)C[C@H]4C(=O)NCc4ccc(-c5scnc5C)cc4)C(C)(C)C)CC3)CC1)C(C)(C)c1[nH]c3cc(C#N)ccc3c1C2=O (single isomer, unassigned)
2. CCc1cc2c(cc1N1CCC(N3CCN(CCCC#Cc4cccc5c4CN(C4CCC(=O)NC4=O)C5=O)CC3)CC1)C(C)(C)c1[nH]c3cc(C#N)ccc3c1C2=O (stereo not drawn)
3. CCc1cc2c(cc1N1CCN(C(=O)CCOCCOCCNc3cccc4c3C(=O)N(C3CCC(=O)NC3=O)C4=O)CC1)C(C)(C)c1[nH]c3cc(C#N)ccc3c1C2=O (stereo not drawn)
4. CCc1cc2c(cc1N1CCN(C(=O)CCOCCOCCOCCOCCNc3cccc4c3C(=O)N(C3CCC(=O)NC3=O)C4=O)CC1)C(C)(C)c1[nH]c3cc(C#N)ccc3c1C2=O (stereo not drawn)

Data returned:
[32.5, 0.9, 30.8, 11.9]
